test system: Aβtotal; experiment: Screening for γ-secretase-modulating activity, Method 2: Aβtotal Alphalisa in supernatant of SKNBE2 cells carrying APP 695 wild type (Table 12c); assay type: cell-based; conditions: Homo sapiens, Method 2, Table 12c, incubated overnight
pIC50: −log10 of the molar value.
METRIC: pIC50

>  <COMPOUND>
COc1cc(Nc2cccn3c(C)c(-c4ccccc4C(F)(F)F)nc23)ccc1-n1cnc(C)c1 [Compound 29]

>  <NUMERIC RESULT>
5.15

$$$$
>  <COMPOUND>
COc1cc(Nc2nccn3cc(-c4ccc(F)cc4C)nc23)ccc1-n1cnc(C)n1 [Compound 176]

>  <NUMERIC RESULT>
5.08

$$$$
